tested on: ACHN; assay: NCI tumour cell line growth inhibition, 48 h
The source made the active and inactive calls. Rule as the data show it: active = GI50 up to about 1.1 µM and inactive = higher.
Respond using exactly one of the listed classes: t for active, f for inactive

Prompt: So what was the verdict on `CCN(CC)CCN(C)CC(C)(C)C(=O)/C=C/c1ccccc1` in this test?
Completion: f

Prompt: I'd appreciate the recorded outcome for `O=c1oc2ccc(Cl)cc2c2ccccc12` from this test.
Completion: f

Prompt: GET /call?item= `NN` returns the recorded outcome of this test.
Completion: f

Prompt: Which outcome did this test record for the molecule CCC1OC2C(CC=C(C)C)=C3OC(C)(O)C(C)(CC)C(O)C3=C3OC(=O)C=C1C32 (stereo unspecified) ?
Completion: f
